meta.source: the supplement of paper PMC10567573

B1: TCEB3B (parent)
chain: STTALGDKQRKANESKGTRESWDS

Variants of: B1
run description: protein stability index of a GFP-peptide fusion (GPS, HEK-293T) (PSI 1-6); higher = more stable;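 further: lentivirally expressed fusions sorted by FACS into six bins by GFP to DsRed ratio, PSI derived from sequencing read proportions per bin multiplied by bin number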
experimental context: c terminus: a fixed tail appended
protein stability index listing for selected variants.
Please give the numeric answer without any surrounding text.

Below, 6 variants whose answers are already recorded.
R19V
5.14
R19F
3.86
A12V
3.88
T2P
3.94
K11M
3.86
S15P
4.34

I am curious: what protein stability index value has been reported for D23S ?
1.78

Could you tell me which protein stability index is on file for G17N ?
3.74

State the recorded protein stability index for this entry: E14G
3.85

Given D7Q , state its recorded protein stability index.
3.15

For R10M , what is its reported protein stability index?
4.03
